B1: NELF-E aptamer (parent)
chain: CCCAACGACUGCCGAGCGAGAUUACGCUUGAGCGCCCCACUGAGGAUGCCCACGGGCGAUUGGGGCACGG

# Variants of: B1
# ASSAY OVERVIEW: HiTS-RAP
# EXPERIMENTAL CONTEXT: with NELF-E (Drosophila)
MEASUREMENT KIND: log10(Kd) (log10 of the value in nM)

G11U G26U    0.83
G11A A24G    0.76
C17G G26A    0.74
G11U    0.76
A5U A43G    1.18
G14A U22G    0.70
G11A G14A    0.80
U22G C35U    1.06
C12U G14U    0.91
U22G U60C    1.03
G7U U10C    0.78
U29G G32A    0.73
A67C    0.70
C12G U28G    0.95
G44C    1.44
A4G A46U    1.86
C17G A43G    0.98
C9G A31U    0.88
G7A A24G    0.83
C13G A31G    0.85
C17A U23G    0.70
A21U U41G    0.73
U23G C38U    0.99
A5G G16U    0.87
A24G C57U    0.80
G7U C27U    0.71
C12G C17G    0.75
U41G G42A    1.37
A4U U41C    1.82
A4G U60A    1.03
C37A U41G    1.20
G7U U60C    1.04
C17U A24G    0.74
C13G G65A    0.73
A8G G32A    0.71
U22G U47G    0.86
A8U G42A    1.85
A8U C51U    1.03
